Sourced from BindingDB's records for doi:10.1016/S0960-894X(01)80235-3

A short record of IC50 observed with O-acyltransferase (Oryctolagus cuniculus, UniProt G1SFD9) follows.
Sequence (G1SFD9 1-524): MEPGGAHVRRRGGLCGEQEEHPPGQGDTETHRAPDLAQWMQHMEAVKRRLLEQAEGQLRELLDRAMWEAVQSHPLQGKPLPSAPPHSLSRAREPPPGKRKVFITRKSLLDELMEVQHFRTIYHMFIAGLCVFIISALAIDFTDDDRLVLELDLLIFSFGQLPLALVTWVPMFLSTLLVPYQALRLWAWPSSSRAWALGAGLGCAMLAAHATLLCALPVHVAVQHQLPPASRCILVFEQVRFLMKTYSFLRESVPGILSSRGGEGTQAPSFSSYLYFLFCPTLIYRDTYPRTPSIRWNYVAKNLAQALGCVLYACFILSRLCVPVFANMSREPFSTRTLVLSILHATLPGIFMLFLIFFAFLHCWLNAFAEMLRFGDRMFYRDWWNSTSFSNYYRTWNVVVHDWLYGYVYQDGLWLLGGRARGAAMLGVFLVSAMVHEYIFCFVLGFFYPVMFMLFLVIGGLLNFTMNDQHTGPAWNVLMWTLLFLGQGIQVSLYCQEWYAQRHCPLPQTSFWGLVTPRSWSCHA
observable: IC50 (µM)

[[record]]
moleculesmiles = "CCCCCCCC/C=C\\CCCCCCC[c+]1cc(O)n(-c2ccc([N+](=O)[O-])cc2[N+](=O)[O-])[n-]1"
testsystem = "O-acyltransferase (Oryctolagus cuniculus, UniProt G1SFD9)"
observable = "IC50"
recordedresult = 5

[[record]]
moleculesmiles = "CCCCCCCC/C=C\\CCCCCCCc1cc(=O)n(-c2ccc(F)cc2F)[nH]1"
testsystem = "O-acyltransferase (Oryctolagus cuniculus, UniProt G1SFD9)"
observable = "IC50"
recordedresult = 5

